Measured values drawn from patent US11040026B2 for this set.

- ASSAY_DETAILS: Rodent pharmacokinetic study
- Format: in vivo, Male Wistar rats
- SETTINGS: rat, oral (gavage) 3 mg/kg vs intravenous 1 mg/kg
READOUT_TYPE: F (%)

INSERT INTO measurements (molecule, number) VALUES
  ('CN1CCc2c(Cc3ccnc(F)c3)cc(C(=O)N[C@H]3CCCC[C@@H]3O)nc21', 78);

a. Cn1ccc2c(Cc3ccc(Cl)nc3)cc(C(=O)N[C@H]3CCCC[C@@H]3O)nc21
b. CN1CCOc2c(Cc3ccc(F)cc3)cc(C(=O)N[C@@H]3CCOC[C@H]3O)nc21 (single isomer, unassigned; isomer-ii)
Exam item: Between a and b , which one shows the smaller F number? Select an item and report its label.
Marked response: b
(b: 22%, a: 106%)

---

- ASSAY_DETAILS: Rodent pharmacokinetic study
- Format: in vivo, Male Wistar rats
- SETTINGS: male, Wistar, plasma; rat, intravenous (bolus), 1 mg/kg
READOUT_TYPE: clearance (L/h/kg)

Illustrative cases are given below, each with its answer.
INSERT INTO measurements (molecule, readout_type, number) VALUES
  ('Cn1ccc2c(Cc3ccc(Cl)nc3)cc(C(=O)N[C@H]3CCCC[C@@H]3O)nc21', 'clearance', 1.2),
  ('CN1CCOc2c(Cc3ccc(F)cc3)cc(C(=O)N[C@@H]3CCOC[C@H]3O)nc21 (single isomer, unassigned; isomer-ii)', 'clearance', 1.26),
  ('CN1CCOc2c(Cc3ccc(F)cc3)cc(C(=O)N[C@H]3CCCC[C@@H]3O)nc21', 'clearance', 1.68);

I. Cl.O=C(N[C@H]1CCCC[C@@H]1O)c1cc(Cc2ccc(F)cc2)c2c(n1)CNCC2
II. CN1CCc2c(Cc3ccnc(F)c3)cc(C(=O)N[C@H]3CCCC[C@@H]3O)nc21
Exam item: Quick one: lower clearance, I or II ? Return value: the label identifying the chosen record.
Marked response: II

I. O=C(N[C@H]1CCCC[C@@H]1O)c1cc(Cc2ccc(F)cc2)c2c(n1)OCCO2
II. Cn1ccc2c(Cc3ccnc(F)c3)cc(C(=O)N[C@H]3CCCC[C@@H]3O)nc21
Exam item: Lower value for measured clearance? Options: I , II Answer by stating the label of the chosen item.
Marked response: I

---

- ASSAY_DETAILS: Rodent brain penetration study
- Assay type: in vivo, Male Wistar rats
- SETTINGS: male, Wistar, brain and plasma, po; rat, 3 mg/kg, p.o., brain-plasma ratio; read-out: Single dose Rat Brain Penetration (Cb/Cp) at 3 mg/kg, p.o.
READOUT_TYPE: Kp

INSERT INTO measurements (compound, readout_type, number) VALUES
  ('Cn1ccc2c(Cc3ccc(F)cc3)cc(C(=O)N[C@@H]3COCC[C@@H]3O)nc21 (single isomer, unassigned; isomer-i) [Example 65]', 'Kp', 0.32);

I. Cn1ccc2c(Cc3ccc(Cl)nc3)cc(C(=O)N[C@H]3CCCC[C@@H]3O)nc21 [Example 18]
II. Cl.O=C(N[C@H]1CCCC[C@@H]1O)c1cc(Cc2ccc(F)cc2)c2c(n1)CNCC2 [Example 87, Hydrochloride]
Exam item: So which one has the bigger Kp here, I or II ? Reply briefly: the label of your chosen item.
Marked response: I

---

- ASSAY_DETAILS: Rodent pharmacokinetic study
- Format: in vivo, Male Wistar rats
- SETTINGS: male, Wistar, plasma; rat, intravenous (bolus), 1 mg/kg
READOUT_TYPE: half-life (h)

INSERT INTO results (compound, readout_type, units_label, number) VALUES
  ('CN1CCOc2c(Cc3ccc(F)cc3)cc(C(=O)N[C@H]3CCCC[C@@H]3O)nc21 [Example 120]', 'half-life', 'h', 1.2),
  ('CN1CCOc2c(Cc3ccc(F)cc3)cc(C(=O)N[C@@H]3CCOC[C@H]3O)nc21 (single isomer, unassigned; isomer-ii) [Example 124]', 'half-life', 'h', 1.1),
  ('Cn1ccc2c(Cc3ccnc(F)c3)cc(C(=O)N[C@H]3CCCC[C@@H]3O)nc21 [Example 1]', 'half-life', 'h', 1.3);

---

- TESTED_ON: UniProt:P11229
- Sequence (P11229 1-460): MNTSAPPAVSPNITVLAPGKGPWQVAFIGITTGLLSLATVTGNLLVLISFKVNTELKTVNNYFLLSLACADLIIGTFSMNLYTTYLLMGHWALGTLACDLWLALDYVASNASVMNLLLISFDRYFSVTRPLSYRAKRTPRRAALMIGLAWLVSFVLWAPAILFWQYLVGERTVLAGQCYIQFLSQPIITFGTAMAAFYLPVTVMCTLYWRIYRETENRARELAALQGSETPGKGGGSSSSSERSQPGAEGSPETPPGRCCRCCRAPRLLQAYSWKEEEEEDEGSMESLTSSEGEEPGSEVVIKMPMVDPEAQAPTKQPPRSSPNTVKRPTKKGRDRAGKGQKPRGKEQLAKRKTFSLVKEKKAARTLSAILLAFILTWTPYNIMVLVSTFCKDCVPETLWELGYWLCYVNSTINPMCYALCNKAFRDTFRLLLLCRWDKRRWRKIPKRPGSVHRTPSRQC
- ASSAY_DETAILS: Allosteric potency EC50 for muscarinic M1 receptor (CHO pCRE-Luc reporter assay)
- SETTINGS: in presence of EC20 of acetylcholine; CHO cells, luciferase reporter, 4 hours
pEC50: −log10 of the molar value.
READOUT_TYPE: pEC50

# count of solved cases: 5
INSERT INTO measurements (compound, readout_type, number) VALUES
  ('CSc1ccc(Cc2cc(C(=O)N[C@H]3CCCC[C@@H]3O)nc3c2ccn3C)cn1', 'pEC50', 6.50),
  ('COc1ccc(Cc2cc(C(=O)N[C@H]3CCCC[C@@H]3O)nc3c2ccn3C)cn1', 'pEC50', 5.97),
  ('Cl.O=C(N[C@H]1CCCC[C@@H]1O)c1cc(Cc2ccc(F)cc2)c2c(n1)CNCC2 [Example 87, Hydrochloride]', 'pEC50', 6.62),
  ('COc1ccc(Cc2cc(C(=O)N[C@H]3CCCC[C@@H]3O)nc3c2ccn3C)cc1', 'pEC50', 5.95),
  ('Cn1ccc2c(Cc3ccc(-c4cscn4)cc3)cc(C(=O)N[C@H]3CCCC[C@@H]3O)nc21', 'pEC50', 6.89);

A. Cn1cc(-c2ccc(Cc3cc(C(=O)N[C@H]4CCCC[C@@H]4O)nc4c3ccn4C)c(F)c2)cn1
B. Cn1ccc2c(Cc3cccc(F)c3)cc(C(=O)N[C@H]3CCCC[C@@H]3O)nc21
C. Cn1ccc2c(Cc3cccc(F)c3F)cc(C(=O)N[C@@H]3CCOC[C@H]3O)nc21 (single isomer, unassigned; isomer-i) [Example 43]
Exam item: Please list the entries, largest pEC50 first. // list labels; follow requested order
Marked response: A, B, C
(A: 7.77, B: 6.44, C: 5.60)

I. Cn1ccc2nc(C(=O)N[C@H]3CCCC[C@@H]3O)cc(Cc3ccc(F)cc3)c21
II. COc1ccc(Cc2cc(C(=O)N[C@H]3CCCC[C@@H]3O)nc3c2OCCO3)cc1
III. O=C(N[C@@H]1CCOC[C@H]1O)c1cc(Cc2ccc(F)cc2)c2c(n1)CNCC2 (single isomer, unassigned; isomer-ii)
IV. Cn1cc(-c2ccc(Cc3cc(C(=O)N[C@H]4CCCC[C@@H]4O)nc4c3ccn4C)cn2)cn1
Exam item: Arrange by pEC50, high to low. Submit the labels in the order that the ranking request calls for.
Marked response: IV, III, II, I
(IV: 7.42, III: 6.96, II: 6.64, I: 6.19)

1. Cn1ccc2c(Cc3cccnc3)cc(C(=O)N[C@H]3CCCC[C@@H]3O)nc21
2. Cn1ccc2c(Cc3ccc(Cl)nc3)cc(C(=O)N[C@H]3CCOC[C@H]3O)nc21 (single isomer, unassigned; isomer-i) [Example 49]
Exam item: Problem: Given the entries 1 and 2 , determine which has the lower reported pEC50. Your answer should be the label of the entry you select.
Marked response: 2

---

- ASSAY_DETAILS: Rodent pharmacokinetic study
- Format: in vivo, Male Wistar rats
- SETTINGS: male, Wistar, plasma; rat, intravenous (bolus), 1 mg/kg
READOUT_TYPE: AUC(0-t) (ng·h/mL)

Reference set (5 entries):
INSERT INTO assay_data (compound, readout_type, units_label, number) VALUES
  ('O=C(N[C@H]1CCCC[C@@H]1O)c1cc(Cc2ccc(F)cc2)c2c(n1)OCCO2 [Example 103]', 'AUC(0-t)', 'ng·h/mL', 791),
  ('Cn1ccc2c(Cc3ccnc(F)c3)cc(C(=O)N[C@H]3CCCC[C@@H]3O)nc21 [Example 1]', 'AUC(0-t)', 'ng·h/mL', 796),
  ('CN1CCOc2c(Cc3ccc(F)cc3)cc(C(=O)N[C@H]3CCCC[C@@H]3O)nc21 [Example 120]', 'AUC(0-t)', 'ng·h/mL', 593),
  ('CN1CCc2c(Cc3ccnc(F)c3)cc(C(=O)N[C@H]3CCCC[C@@H]3O)nc21 [Example 73]', 'AUC(0-t)', 'ng·h/mL', 742),
  ('Cn1ccc2c(Cc3ccc(Cl)nc3)cc(C(=O)N[C@H]3CCCC[C@@H]3O)nc21 [Example 18]', 'AUC(0-t)', 'ng·h/mL', 853);

I. CN1CCOc2c(Cc3ccc(F)cc3)cc(C(=O)N[C@@H]3CCOC[C@H]3O)nc21 (single isomer, unassigned; isomer-ii) [Example 124]
II. Cl.O=C(N[C@H]1CCCC[C@@H]1O)c1cc(Cc2ccc(F)cc2)c2c(n1)CNCC2 [Example 87]
Exam item: In the pair I and II , the larger recorded AUC(0-t) belongs to which? Kindly state the label of the option you pick.
Marked response: I
(I: 787 ng·h/mL, II: 224 ng·h/mL)
